Assign viability increase to each entry below.
Experiment: viability gain of MRP-1-high H69AR cells under doxorubicin, pilot screen, MRP-1 activator project, CellTiter-Glo, duplicate (AID 807);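 note: compound pretreatment 18-22 h then 72 h combined with doxorubicin; 0% = doxorubicin alone and 100% = vehicle without doxorubicin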
Settings: H69AR viability with doxorubicin, CellTiter-Glo luminescence; at 10 µM; active compounds read high
One number for each entry, in %.

Field: example entries. Status: answers known.
{"Compound": "CCN(CC)C(=O)CN(Cc1ccccc1)S(=O)(=O)c1ccc(F)cc1", "Unit Text": "%", "viability increase": -0.99}
{"Compound": "Cc1cc(SCC(=O)c2ccccc2)n2nc(C)nc2n1", "Unit Text": "%", "viability increase": -6.79}

Field: viability increase. Fill in for each record below.
1. CC(C)Nc1ncnc2c1cnn2-c1ccc(Cl)cc1
2. O=C(c1ccc(-c2ccccc2)cc1)N1CCCC1
3. CC(=O)c1ccc(N2CCN(C(=O)c3cc4c(-c5ccccc5F)nn(C)c4s3)CC2)cc1
4. CC1(C)Nc2ccccc2N(CCC(=O)N2CCOCC2)C1=O
5. CCCOc1ccccc1C1NC(=O)NC(C)=C1C(=O)OCCOC(C)C (centres undefined)
6. COc1ccc(CNC(=O)CN(c2cc(C)cc(C)c2)S(=O)(=O)c2c(C)noc2C)cc1

-3.14
0.06
-2.9
-0.6
-2.17
-4.08
